# subject.of.test: Glutamate receptor ionotropic, kainate 5 (Homo sapiens, UniProt Q16478)
# Sequence (Q16478 whole entry): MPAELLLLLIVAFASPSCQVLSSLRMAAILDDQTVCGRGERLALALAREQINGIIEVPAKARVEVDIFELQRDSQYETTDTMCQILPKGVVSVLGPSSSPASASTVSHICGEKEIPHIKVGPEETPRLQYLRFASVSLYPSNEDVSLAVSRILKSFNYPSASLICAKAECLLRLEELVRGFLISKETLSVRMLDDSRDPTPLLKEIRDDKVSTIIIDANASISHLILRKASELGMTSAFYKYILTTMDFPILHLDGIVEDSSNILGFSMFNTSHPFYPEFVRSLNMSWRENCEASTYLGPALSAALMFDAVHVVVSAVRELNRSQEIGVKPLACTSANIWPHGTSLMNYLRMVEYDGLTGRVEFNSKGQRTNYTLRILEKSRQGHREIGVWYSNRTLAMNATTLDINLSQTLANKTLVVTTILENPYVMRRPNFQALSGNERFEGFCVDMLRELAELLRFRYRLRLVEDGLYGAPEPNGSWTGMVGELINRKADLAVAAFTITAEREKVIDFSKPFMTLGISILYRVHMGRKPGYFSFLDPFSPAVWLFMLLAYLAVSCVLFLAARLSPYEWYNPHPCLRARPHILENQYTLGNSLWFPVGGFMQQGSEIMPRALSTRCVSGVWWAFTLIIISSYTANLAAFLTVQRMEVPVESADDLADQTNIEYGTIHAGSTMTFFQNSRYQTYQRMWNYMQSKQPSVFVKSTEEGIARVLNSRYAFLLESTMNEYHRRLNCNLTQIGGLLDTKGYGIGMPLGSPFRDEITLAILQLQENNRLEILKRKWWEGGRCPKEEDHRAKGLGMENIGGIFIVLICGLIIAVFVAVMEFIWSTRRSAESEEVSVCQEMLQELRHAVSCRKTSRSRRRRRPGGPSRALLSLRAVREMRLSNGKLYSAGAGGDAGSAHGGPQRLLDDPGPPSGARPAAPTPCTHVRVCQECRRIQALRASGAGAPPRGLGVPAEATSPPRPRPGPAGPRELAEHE
pKi: −log10 of the molar value.
Listed below: pKi values for each entry.
metric.name: pKi

molecular.string	inequality.symbol	recorded.measurement
O=C(Nn1c(=O)c(=O)[nH]c2cc(C#Cc3ccccc3)ccc21)c1ccccc1	<	4.00
O=C(Nn1c(=O)c(=O)[nH]c2cc(C#CCO)ccc21)c1ccccc1	=	4.00

----------
compounds and their reported MIC
# System: Candida
# procedure.text: Antifungal activity against Candida species isolate 3
# Assay type: functional
metric.name: MIC (µg/mL)

molecular.string	inequality.symbol	recorded.measurement
O=c1[nH]c2ccc(C(F)(F)F)cc2nc1C(F)(F)F	=	125
O=c1[nH]c2ccc(C(F)(F)F)cc2nc1CBr	=	62.5
O=c1[nH]c2cc([N+](=O)[O-])ccc2nc1CBr	=	15.6
O=c1[nH]c2cc(F)c(F)cc2nc1CBr	=	500
O=c1[nH]c2cc(C(F)(F)F)ccc2nc1C(F)(F)F	=	125
O=c1[nH]c2cc(C(F)(F)F)ccc2nc1CBr	<	3.5

These measurements were taken from ChEMBL document CHEMBL5113380.
